target: RARγ (Homo sapiens, UniProt P13631)
Sequence (P13631 whole entry): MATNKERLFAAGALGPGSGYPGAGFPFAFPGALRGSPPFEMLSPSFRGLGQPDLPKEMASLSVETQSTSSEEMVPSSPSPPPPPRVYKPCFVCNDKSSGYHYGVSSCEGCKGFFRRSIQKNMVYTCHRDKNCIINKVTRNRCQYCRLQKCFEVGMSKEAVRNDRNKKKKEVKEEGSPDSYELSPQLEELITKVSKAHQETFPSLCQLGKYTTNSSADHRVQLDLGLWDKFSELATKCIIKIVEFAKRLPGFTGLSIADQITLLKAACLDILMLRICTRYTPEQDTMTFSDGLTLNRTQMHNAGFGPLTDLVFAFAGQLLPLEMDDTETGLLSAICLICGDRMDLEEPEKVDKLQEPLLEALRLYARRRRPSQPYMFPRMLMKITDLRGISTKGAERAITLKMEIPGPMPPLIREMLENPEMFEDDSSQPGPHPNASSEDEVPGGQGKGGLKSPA
measurement description: co-transfection assay (RAR/RXR agonist activity, luciferase reporter in CV-1 cells)
run parameters: potency = EC50, agonist, 40 hours, read-out: RARγ Pot
Each record here notes measured EC50.
metric name: EC50

[[record]]
molecule = "CC(/C=C/CN1CCCc2c1ccc1c2C(C)(C)CCC1(C)C)=C\\C(=O)O [Compound 143b]"
result = "1880 nM"

[[record]]
molecule = "CC(/C=C/C=C1\\CCCc2cc3c(cc21)C(C)(C)CCC3(C)C)=C\\C(=O)O [Compound 109b]"
result = "1 nM"

[[record]]
molecule = "CC(/C=C/C=C1/CCC(C)(C)c2cc3c(cc21)C(C)(C)CCC3(C)C)=C\\C(=O)O [Compound 106b]"
result = "14 nM"

[[record]]
molecule = "CC(/C=C/C(=O)N1CCc2cc3c(cc21)C(C)(C)CCC3(C)C)=C\\C(=O)O [Compound 141b]"
result = "12 nM"


====

target: RARα (Homo sapiens, UniProt P10276)
Sequence (P10276 1-462): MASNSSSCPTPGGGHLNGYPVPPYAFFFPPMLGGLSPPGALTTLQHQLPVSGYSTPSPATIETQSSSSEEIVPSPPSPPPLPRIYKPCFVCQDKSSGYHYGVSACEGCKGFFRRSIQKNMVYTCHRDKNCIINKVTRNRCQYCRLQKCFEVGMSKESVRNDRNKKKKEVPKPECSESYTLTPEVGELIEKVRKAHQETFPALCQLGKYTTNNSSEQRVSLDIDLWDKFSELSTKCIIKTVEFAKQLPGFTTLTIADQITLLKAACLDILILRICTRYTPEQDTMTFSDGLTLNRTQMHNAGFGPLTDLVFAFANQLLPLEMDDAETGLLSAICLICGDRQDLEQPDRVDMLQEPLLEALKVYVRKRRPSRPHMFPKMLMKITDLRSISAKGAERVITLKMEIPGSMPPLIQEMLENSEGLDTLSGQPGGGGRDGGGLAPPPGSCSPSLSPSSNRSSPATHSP
measurement description: co-transfection assay (RAR/RXR agonist activity, luciferase reporter in CV-1 cells)
run parameters: read-out: RARα Pot
pEC50: −log10 of the molar value.
Label satisfied when pEC50 >= 7; otherwise not satisfied.

[[record]]
compound = "CC(/C=C/C=C1/CCCc2cc3c(cc21)C(C)(C)CCC3(C)C)=C\\C(=O)O [Compound 101b]"
label_class = "satisfied"

[[record]]
compound = "CCN1CC\\C(=C/C=C/C(C)=C/C(=O)O)c2cc3c(cc21)C(C)(C)CCC3(C)C [Compound 147b]"
label_class = "satisfied"

[[record]]
compound = "CC(/C=C/C=C1\\CCCc2cc3c(cc21)C(C)(C)CCC3(C)C)=C\\C(=O)O [Compound 109b]"
label_class = "satisfied"

[[record]]
compound = "CC(/C=C/CN1CCCc2c1ccc1c2C(C)(C)CCC1(C)C)=C\\C(=O)O [Compound 143b]"
label_class = "not satisfied"

[[record]]
compound = "CC(/C=C/C(=O)N1CCc2cc3c(cc21)C(C)(C)CCC3(C)C)=C\\C(=O)O [Compound 141b]"
label_class = "not satisfied"

[[record]]
compound = "CC(/C=C/C=C1/CCOc2cc3c(cc21)C(C)(C)CCC3(C)C)=C\\C(=O)O [Compound 144b]"
label_class = "satisfied"

[[record]]
compound = "CC(/C=C/C=C1\\CCc2c1ccc1c2C(C)(C)CCC1(C)C)=C\\C(=O)O [Compound 135b]"
label_class = "not satisfied"

[[record]]
compound = "CC(/C=C/C=C1\\CCOc2cc3c(cc21)C(C)(C)CCC3(C)C)=C\\C(=O)O [Compound 119b]"
label_class = "satisfied"

[[record]]
compound = "CC(/C=C/CN1CCCCc2cc3c(cc21)C(C)(C)CCC3(C)C)=C\\C(=O)O [Compound 138b]"
label_class = "not satisfied"

[[record]]
compound = "CC1(C)CCC(C)(C)c2cc3c(cc21)CCC/C3=N\\Nc1ccc(C(=O)O)cc1 [Compound 152b]"
label_class = "not satisfied"


====

# Kd values compiled below
Target sequence: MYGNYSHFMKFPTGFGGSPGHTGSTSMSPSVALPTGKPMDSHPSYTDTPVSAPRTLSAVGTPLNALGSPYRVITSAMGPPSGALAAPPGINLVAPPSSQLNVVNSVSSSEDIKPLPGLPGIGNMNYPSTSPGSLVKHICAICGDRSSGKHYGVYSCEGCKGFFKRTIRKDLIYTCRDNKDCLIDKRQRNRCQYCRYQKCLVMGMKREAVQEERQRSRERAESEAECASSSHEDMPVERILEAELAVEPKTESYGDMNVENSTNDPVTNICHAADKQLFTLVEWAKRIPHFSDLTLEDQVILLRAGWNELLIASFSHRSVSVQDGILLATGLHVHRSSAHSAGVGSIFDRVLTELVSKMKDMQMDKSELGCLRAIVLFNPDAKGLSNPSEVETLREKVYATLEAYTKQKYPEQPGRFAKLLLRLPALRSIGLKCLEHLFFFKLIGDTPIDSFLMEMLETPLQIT
metric name: Kd (nM)

[[record]]
compound = "CC(/C=C/C=C1\\CCCc2cc3c(cc21)C(C)(C)CCC3(C)C)=C\\C(=O)O [Compound 109b]"
metric_name = "Kd"
result = 382

[[record]]
compound = "CC(/C=C/CN1CCCCc2cc3c(cc21)C(C)(C)CCC3(C)C)=C\\C(=O)O [Compound 138b]"
metric_name = "Kd"
result = 508

[[record]]
compound = "CC(/C=C/C=C1/CCOc2cc3c(cc21)C(C)(C)CCC3(C)C)=C\\C(=O)O [Compound 144b]"
metric_name = "Kd"
result = 85

[[record]]
compound = "CC(/C=C/C=C1/CCCc2cc3c(cc21)C(C)(C)CCC3(C)C)=C\\C(=O)O [Compound 101b]"
metric_name = "Kd"
result = 48

[[record]]
compound = "CC(/C=C/C=C1\\CCOc2cc3c(cc21)C(C)(C)CCC3(C)C)=C\\C(=O)O [Compound 119b]"
metric_name = "Kd"
result = 398

[[record]]
compound = "CCN1CC\\C(=C/C=C/C(C)=C/C(=O)O)c2cc3c(cc21)C(C)(C)CCC3(C)C [Compound 147b]"
metric_name = "Kd"
result = 724


====

target: RXRα (Homo sapiens, UniProt P19793)
Sequence (P19793 1-462): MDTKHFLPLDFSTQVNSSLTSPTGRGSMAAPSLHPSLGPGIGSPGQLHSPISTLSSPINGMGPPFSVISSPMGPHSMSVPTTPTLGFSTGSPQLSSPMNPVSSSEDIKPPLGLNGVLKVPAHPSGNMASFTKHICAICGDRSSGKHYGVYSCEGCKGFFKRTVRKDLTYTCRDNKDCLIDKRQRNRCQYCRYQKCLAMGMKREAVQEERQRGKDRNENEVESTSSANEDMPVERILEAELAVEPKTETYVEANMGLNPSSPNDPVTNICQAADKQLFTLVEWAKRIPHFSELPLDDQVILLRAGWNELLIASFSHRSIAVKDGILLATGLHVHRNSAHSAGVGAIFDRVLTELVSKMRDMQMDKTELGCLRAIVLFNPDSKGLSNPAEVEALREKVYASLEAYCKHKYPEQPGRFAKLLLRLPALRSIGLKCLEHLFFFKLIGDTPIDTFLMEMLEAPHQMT
measurement description: co-transfection assay (RAR/RXR agonist activity, luciferase reporter in CV-1 cells)
run parameters: read-out: RXRα Pot
metric name: EC50

[[record]]
compound = "CC(/C=C/C=C1/CCC(C)(C)c2cc3c(cc21)C(C)(C)CCC3(C)C)=C\\C(=O)O [Compound 106b]"
metric_name = "EC50"
result = "> 10 µM"

[[record]]
compound = "CC1(C)CCC(C)(C)c2cc3c(cc21)CCC/C3=N\\Nc1ccc(C(=O)O)cc1 [Compound 152b]"
metric_name = "EC50"
result = "> 10 µM"

[[record]]
compound = "CC(/C=C/C(=O)N1CCc2cc3c(cc21)C(C)(C)CCC3(C)C)=C\\C(=O)O [Compound 141b]"
metric_name = "EC50"
result = "> 10 µM"

